target.desc: T1, B-cat-Halo (UniProt P35222 1-781)
T1 sequence (looked up): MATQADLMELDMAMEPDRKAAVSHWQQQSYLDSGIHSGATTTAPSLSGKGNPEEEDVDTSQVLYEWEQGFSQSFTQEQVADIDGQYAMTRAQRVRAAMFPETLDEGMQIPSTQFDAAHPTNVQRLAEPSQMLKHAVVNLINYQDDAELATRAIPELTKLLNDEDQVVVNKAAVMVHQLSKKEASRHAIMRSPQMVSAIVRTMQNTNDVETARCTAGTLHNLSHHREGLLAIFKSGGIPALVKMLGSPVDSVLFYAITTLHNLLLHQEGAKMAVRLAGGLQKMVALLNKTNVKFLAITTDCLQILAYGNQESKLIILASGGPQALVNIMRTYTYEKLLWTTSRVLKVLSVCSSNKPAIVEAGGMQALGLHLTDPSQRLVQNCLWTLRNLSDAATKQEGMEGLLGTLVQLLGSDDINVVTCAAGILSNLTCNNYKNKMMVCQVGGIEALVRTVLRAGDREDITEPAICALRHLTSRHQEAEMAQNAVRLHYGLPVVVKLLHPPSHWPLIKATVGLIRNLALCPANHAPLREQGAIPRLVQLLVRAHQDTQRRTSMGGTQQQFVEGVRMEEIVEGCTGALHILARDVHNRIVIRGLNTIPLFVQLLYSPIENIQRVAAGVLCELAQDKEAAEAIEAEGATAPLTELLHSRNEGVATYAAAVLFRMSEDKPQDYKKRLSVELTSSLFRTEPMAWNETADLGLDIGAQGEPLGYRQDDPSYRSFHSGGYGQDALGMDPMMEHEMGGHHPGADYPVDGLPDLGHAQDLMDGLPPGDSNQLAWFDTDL
experiment: cell-based or functional assay
Starred links: 1 amine or outer side, 2 acyl side, 3 side chain; linkers in the order of their positions; H or OH if unused. Positions of bridges follow the written chain, without caps; N, C: chain ends. Non-standard residues stand in square brackets, D forms with d. Primed or numbered codes have the meaning given here. (MeMorphBz)GAbu = (S)-2-amino-4-(N-(carboxymethyl)-4-(morpholinomethyl)benzamido)butanoic acid, O=C(c1ccc(CN2CCOCC2)cc1)N(CC[C@H](N[*:1])C(=O)[*:2])CC(=O)[*:3]; (MorphAc)GAbu = (S)-2-amino-4-(N-(carboxymethyl)-2-morpholinoacetamido)butanoic acid, O=C(CN1CCOCC1)N(CC[C@H](N[*:1])C(=O)[*:2])CC(=O)[*:3]; PyrS2 = (S)-3-amino-1-((pent-4-en-1-yloxy)carbonyl)pyrrolidine-3-carboxylic acid, C=CCCCOC(=O)N1CC[C@@](N[*:1])(C(=O)[*:2])C1; (Pic)GAbu = (S)-2-amino-4-(N-(carboxymethyl)picolinamido)butanoic acid, O=C(c1ccccn1)N(CC[C@H](N[*:1])C(=O)[*:2])CC(=O)[*:3]; B5(22) = 2-amino-2-(pent-4-en-1-yl)hept-6-enoic acid (two alkene side chains), C=CCCCC(CCCC=C)(N[*:1])C(=O)[*:2]; Bta = N[C@@H](Cc1csc2ccccc12)C(=O)O; αAllylPro = C=CC[C@@]1(C(=O)O)CCCN1; tBuAla = CC(C)(C)C[C@H](N)C(=O)O; 3Thi = N[C@@H](Cc1ccsc1)C(=O)O
Assignment: determine reported NanoBRET Abs IC50 for the given binders.
Answers are plain numbers, in µM.

Would you please look over these solved cases?
binder	NanoBRET Abs IC50, µM
Ac-[αAllylPro]D[tBuAla][B5(22)]D[(MorphAc)GAbu]AAFL[PyrS2][3Thi][Bta]Q-NH2 (staple 1-4, 4-11) [I-2249]	42.2
Ac-[αAllylPro]D[tBuAla][B5(22)]D[(Pic)GAbu]AAFL[PyrS2][3Thi][Bta]Q-NH2 (staple 1-4, 4-11) [I-2247]	5.9

Next item in the queue.
Reported NanoBRET Abs IC50 of Ac-[αAllylPro]D[tBuAla][B5(22)]D[(MeMorphBz)GAbu]AAFL[PyrS2][3Thi][Bta]Q-NH2 (staple 1-4, 4-11) [I-2248] : 21.5
